Listed compounds paired with reported inhibition
- System tested: MAP kinase-interacting serine/threonine-protein kinase 1 (Homo sapiens);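 note: each value is an averaged percent inhibition of MKNK1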
- Condition parameters: at 1 µM
Readout kind: inhibition (%)

{"Smiles representation": "c1ccc(COc2ccc(Nc3ncnc4ccc(-c5ccco5)cc34)cc2)cc1", "Units text": "%", "Quantitative result": 5.5}
{"Smiles representation": "CCn1c(-c2nonc2N)nc2c(C#CC(C)(C)O)nc(OC[C@H](N)c3ccccc3)cc21", "Units text": "%", "Quantitative result": 2.97}
{"Smiles representation": "NS(=O)(=O)c1ccc(Nc2ncc(-c3ccccc3)o2)cc1", "Units text": "%", "Quantitative result": 21.3}
{"Smiles representation": "CCNC(=O)O[C@H]1CN[C@H](C#Cc2cc3ncnc(Nc4ccc(OCc5cccc(F)c5)c(Cl)c4)c3s2)C1", "Units text": "%", "Quantitative result": 4.73}
{"Smiles representation": "Clc1ccc(-c2nn3ncccc3c2-c2ccnc(Nc3ccccc3)n2)cc1", "Units text": "%", "Quantitative result": 3.07}
{"Smiles representation": "CCn1c(-c2nonc2N)nc2cnc(Oc3cccc(NC(=O)c4ccc(N(C)C)cc4)c3)cc21", "Units text": "%", "Quantitative result": 11.5}
{"Smiles representation": "COc1ccc2c(-c3ccnc(Nc4cccc(OC(F)(F)F)c4)n3)cnn2n1", "Units text": "%", "Quantitative result": 9.47}
{"Smiles representation": "c1cc(-c2cnn3nc(N4CCOCC4)ccc23)nc(NC2CC2)n1", "Units text": "%", "Quantitative result": 19.8}
{"Smiles representation": "O=S(=O)(CCNCc1ccc(-c2ccc3ncnc(Nc4ccc(OCc5cccc(F)c5)c(Cl)c4)c3c2)o1)c1ccccc1", "Units text": "%", "Quantitative result": 5.96}
{"Smiles representation": "Nc1nc(-c2cccc(Cl)c2)c(-c2ccc3ncccc3n2)s1", "Units text": "%", "Quantitative result": 9.69}
{"Smiles representation": "O=C(O[C@H]1CN[C@H](C#Cc2cc3ncnc(Nc4ccc(Cc5ccccc5)cc4)c3s2)C1)N1CCOCC1", "Units text": "%", "Quantitative result": 7.67}
{"Smiles representation": "[O-][S+]1CCN(Cc2ccc(-c3ccc4ncnc(Nc5ccc(OCc6cccc(F)c6)c(Cl)c5)c4c3)o2)CC1", "Units text": "%", "Quantitative result": 6.2}
{"Smiles representation": "COc1cc2ncn(-c3cc(OCc4ccccc4C(F)(F)F)c(C(=O)N(C)C)s3)c2cc1OC", "Units text": "%", "Quantitative result": 3.31}
{"Smiles representation": "NC(=O)c1sc(-n2cnc3ccc(C(F)(F)F)cc32)cc1OCc1ccccc1Br", "Units text": "%", "Quantitative result": 5.77}
{"Smiles representation": "Nc1nc(-c2ccc(F)cc2)c(-c2ccc3ncccc3n2)s1", "Units text": "%", "Quantitative result": 8.56}
{"Smiles representation": "COc1ccc(-c2cc(-c3c[nH]nc3-c3ccccn3)ccn2)cc1", "Units text": "%", "Quantitative result": 7.19}
{"Smiles representation": "CC(=O)NCc1cccc(C#Cc2cncnc2Nc2ccc(OCc3cccc(F)c3)c(Cl)c2)c1", "Units text": "%", "Quantitative result": 32.1}
{"Smiles representation": "CN1CCC(n2cnc(-c3ccc(F)cc3)c2-c2ccnc(N)n2)CC1", "Units text": "%", "Quantitative result": 41.2}
{"Smiles representation": "CC(=O)Nc1cccc(C#Cc2cncnc2Nc2ccc(OCc3cccc(F)c3)c(Cl)c2)c1", "Units text": "%", "Quantitative result": 15.4}
{"Smiles representation": "COc1ccc(-c2nn3ncccc3c2-c2ccnc(Nc3ccc4c(c3)OCCO4)n2)cc1", "Units text": "%", "Quantitative result": 0.14}
